experiment: soluble on expression in E. coli; label from the status in PepcDB or PDB records
parameter.measured: soluble on expression in E. coli

sequence.code	test.result
MSLTGGISAFGRMVWEGIQIAHEEKPTVLGEEVELVLLDTRSEKTEAANAAARAIDKEKVLAIIGEVASAHSLAIAPIAEENKVPMVTPASTNPLVTQGRKFVSRVCFIDPFQGAAMAVFAYKNLGAKRVVVFTDVEQDYSVGLSNFFINKFTELGGQVKRVFFRSGDQDFSAQLSVAMSFNPDAIYITGYYPEIALISRQARQLGFTGYILAGDGADAPELIEIGGEAVEGLLFTTHYHPKAASNPVAKKFVEVYKEKYGKEPAALNALGYDAYMVLLDAIERAGSFDREKIAEEIRKTRNFNGASGIINIDENGDEGHHHHHH	not soluble
MGSDKIHHHHHHMINTDHPIRIAIAGLGFGESVHIPASLSNKNIELVGLWHPRPERLKEACNKHNLRAYETWEDLVNDSKVDGIIIATPPAPRYELALEAIKGGKHLLLEKPTCLNAYEVMELQRNALKRNLKIAVDYEYRAVPLFMQAKRIITEKKLDEPYFVKLDWLMSSRANPDRPWNWYSDENSGGGVLGALGTHAFDMIHWLIGPTHSLSAINSTSIEERECPQSKTIKKVTSEDVSISQLQIKSINNNLIPAQVNLSAVTKQSRGFSLEIYGSNGTLVLSSENQNDYVHGFGLWYSNKGDVLKNIQPDSDLSFSKIWTDGRIAPVARIQNWWAQSIADGTPVIPGLVEGLASQIVCDKVKESNSIGMKIEIN	not soluble
MEKSAGRGRPSVSVERIVATALEAVDEVGAQAFNMRMLAERLGSGTATLYRHFASKDEILIYVVDSVLGELLADQPEAVELVPQGQGSEGYSWQKACASGAERLYGVLRRHPGILPLLVSQIPIGPNGLKRREQGIALFLANGFPAELAARAYTSVAHYVLGFAIQQHSSASSEAAEGEELVEFFAALDASEYPAIATAGRHLPGISVEEEFRFGLKLIIDGLELAASAWRKADGC	not soluble
MGSDKIHHHHHHMVVLHSKGGFFLEILKVVDLKKHYGDVKAVDGISFTVERGTVFSFLGPNGAGKTTTVEILEGLRKKDSGEIYYFGERKDVLDRETKRKIGVCLQKSAFFENLTVWETLKLFRGLYGTGLDLKEVMGLFSLENIEKKMVKTLSGGQLQRLAVAVAFINDPEIVFLDEPTTGLDPQARRQIWDTIEHFKNLGKTIFLTTHYMEEAERLSDHVCIIDHGKIIAEGTPSSLISSSGLKTVVEFDCDQDVNVRYLEKKENHYVVETDAPEELIKDLLKNWNVSNIVIRKPNLEDVFLKLTGRDLRE	not soluble
MSASRQRPGNHLLPTLFDRLCDDAPNQKRDHGISVSPVQIKEIIRRDLSFLLNTVSHEDDIDAARYPYAAASVLNYGLPPLAGSFLYEHKWDDIRRAILRTITRFEPRLKASTLQIIPLQDERRQSGHNTLQFEIRGEILTQPYPTAFRVRSALDMEQSRITFF	not soluble
MKAKITGEDDVRVGLHVTDNNGVKHKIEMEFNGEIKYHNQDGYPDKPKNRTPNGNAHVNQTCRYARYHVYQETEYTPLPPEENLPGIKKVKQAIADLSVKEFEAYFSDTYDQVLSNHPSVTPPVPHPESVPQNGYILYLIDVYLDDNDEIEAVSDIHLQYLDENGDKTQDWNDDPFPDRQPDARLQLFGKYVPSMDVFQEFVVYHLRCQLRDVYIGAGLEPPEKYRVLGRGDDDLTSRYHNDKVTIYDDYHLEEADIPGYELEFDYGFGELGKQSVINAKRKGIGAENPDDADSRLANPSQDGEEGLLETVSSVLRGSDTDQTET	not soluble
MGSDKIHHHHHHMFKTIHPLSVARHGKLRLKPVSDYRFAAQEAVIGLVGAEIHKAIHAFPIAFLRSAHAGGTSCQMVGLLSVTPGQNLLVSPDGRWLGDYIPAALRAYPFVLARSQEDADTRLPCLDEDCGLLSESEGQPLFSEDGQLSDFSRRIIDFLTATERNREATQKGVDVLEKAQLFTPWSLQVVIQKQTKAIEGFHVIDETKLNQLDDETWLALRRAGVLPLVYGHLLSLNRTDLLGQLSGLQAQLAQQLTARPKLDDMLDFGDESILQF	not soluble
MQLGDKQLVVQLACANQQRHNTNLPNSASAIAGIDLSQGAGRATEILCLMNMVTEDELKADDEYEEILEDVRDECSKYGIVRSLEIPRPYEDHPVPGVGKVFVEFASTSDCQRAQAALTGRKFANRTVVTSYYDVDKYHNRQF	not soluble
SPAKTPIYLKSNYSKKGKKCRLRDILSPDMISPPLGDFRHTIHIGKGGECDAFGDMSFLQGNFELLPGKGGRVRPQYGLHGEFTRANSASDASYVETPSPVLKNAISLPTIGGSQALTLPMISTTVFPMTHDNMSEPSTPPAGSEDLEILQMETLLQSISIFRSDPSPVPEEDEPMIDRMEMNEKSCMKKMHSSEKELETFLSVFVNGNGDANGNFNNGNNGDSVFQYEQDMFSIKGDWADRDSGVEEGRLCDSDFEISKSKSQSQESLPQITGSLFSLELDLGPSILDDVLNIMNKPVS	soluble
MEAVDLAFANYAERFARSCKGDGWRRLVERAIRLYLTPVLGKKALPAINRTDVVSVFDNMPADQVANRRNVFAVLRRLFRWAVSRGDLDRSPMEGMLEHHHHHH	not soluble
MKNKLLYKLRSGKNPKFIYYSVNALRLIIPKGIFRLRLQGKLSSLSRRKDKEYIEHRVDYYNKLSGTVQLPSSAPHLSEHKMSKQKVYFFDTYQYTRWFSDQFQWGFCPGDVTFVPDYPSIVKSRPLTDDNVNSIVMKLDKVRHFIFVDDKKAFTEKKNMVIFRGKVKGKPSRKLFMEMYFHHPMCDLGDVSKNTTDPAEWRTEKKTINEHLDYKFIMALEGIDVASNLKWVMSSNSIAVMPRPTCETWFMEGTLIPNYHYIEIKPDFSDLEERLNYYIEHVDESLEIINHAHEYVSQFKDKRRENLISLLVLDKYFKMTGQKSLEHHHHHH	soluble
